Where do the numbers come from? From PubChem BioAssay (NCI).

System: UO-31 renal
Assay: NCI-60 one-dose screen, 48 h
Details: 10 µM unless noted
Compounds without any hit were thinned out: in the full panel of roughly 83,000, 20% have a hit. Activity calls are given as the source filed them. The calls were made as follows: active = growth percent below 10; inactive = the rest.
Returns: one label drawn from active, inactive

NC[C@H](O)c1ccc(O)c(O)c1 : inactive

Ask: Check the results log: what was the call for `COc1ccc(-c2nc(SC(C)C)nc(NNC(N)=S)c2C#N)cc1` ?
Reply: inactive

Ask: For `N#Cc1c(N)nc(NCCO)nc1-c1ccc(F)cc1` then?
Reply: inactive

Ask: For `N#Cc1c(N)nc2c(C#N)c(NC(=O)c3ccccc3)nn2c1-c1ccccc1` then?
Reply: inactive

Ask: For `O=C1Nc2ccccc2/C1=C/c1cn(C(=O)c2c(Cl)cccc2Cl)c2ccccc12` then?
Reply: inactive

Ask: For Cc1cc(O)c(C2=NN(c3ccc(S(N)(=O)=O)cc3)C(c3ccccc3Cl)C2)cc1Cl (configuration not stated) then?
Reply: inactive
